- EXPERIMENTAL PROTOCOL: Toxicity of FU and FP in BDF1 mice
- Type: in vivo
- MEASUREMENT PARAMETERS: mouse, in vivo, po, daily, Day 1,2,3,4,5
# Lookup of reported LD50 keyed by entry
PROPERTY LABEL: LD50 (mg/kg)

1. O=c1[nH]cc(F)c(=O)[nH]1 [FU, 5-fluoro uracil, reference compound] ... 70
2. Oc1ncc(F)cn1 [FP, 5-fluoro-2-pyrimidinone] ... 180

====

- EXPERIMENTAL PROTOCOL: Michaelis constant / Vmax of 2-pyrimidinone deoxyribose analogs with the liver enzyme
- Assay type: biochemical, rat
- MEASUREMENT PARAMETERS: rat, liver aldehyde oxidase, pH 7.5
PROPERTY LABEL: Km (µM)

1) O=c1ncc(I)cn1[C@H]1C[C@H](O)[C@@H](CO)O1 [IPdR] ... 150
